condition: 100.0 µM
Quick reference for relative solubility at 100 uM among some molecules
Could you respond with only the numeric value?

# count of solved cases: 3
q: Quick one: relative solubility at 100 uM for O=C(CCl)N1CCC(c2nc(-c3cccnc3)nc3ccccc23)CC1 ?
a: 0.8

q: Quick one: relative solubility at 100 uM for O=C(Nc1cccnc1)c1cc(Cl)ccc1-c1ccccc1 ?
a: 0.97

q: Quick one: relative solubility at 100 uM for Cc1nnc(NC(=O)Cc2cccc(Cl)c2)n1C ?
a: 1

Others:
q: Quick one: relative solubility at 100 uM for C=CC(=O)N(c1ccc(C(C)(C)C)cc1)C(C(=O)NC(C)(C)C)c1cnccc1C (stereo not given) ?
a: 1

q: Quick one: relative solubility at 100 uM for Cc1ccncc1-c1ccc(S(N)(=O)=O)cc1 ?
a: 1

q: Quick one: relative solubility at 100 uM for CC(=O)N[C@@H](Cc1ccc(O)cc1)C(=O)NC(CN1CCN(C(=O)CCl)CC1)c1ccccc1 (stereo in doubt) ?
a: 1

q: Quick one: relative solubility at 100 uM for Cc1cc(NC(=O)Cc2cncnc2)cc(OC2CC(=O)N2)c1 (stereo not given) ?
a: 1

q: Quick one: relative solubility at 100 uM for O=C(Cc1cccc(Cl)c1)Nc1nnn[nH]1 ?
a: 1

q: Quick one: relative solubility at 100 uM for CC(NC(=O)c1ccc2cn[nH]c2c1)C(=O)Nc1ccc(-n2cnc3ccccc32)cc1 (stereo not given) ?
a: 0.51

q: Quick one: relative solubility at 100 uM for Cc1ccc(-c2cc(C(F)(F)F)nn2-c2ccc(S(N)(=O)=O)cc2)cc1 ?
a: 0.79

q: Quick one: relative solubility at 100 uM for O=C(Cc1cc(Cl)cc(Cl)c1)Nc1nncs1 ?
a: 0.7

q: Quick one: relative solubility at 100 uM for Cc1cccc(CC2CCN(C(=O)CCl)CC2)c1 ?
a: 1

q: Quick one: relative solubility at 100 uM for Cc1cccc(NC(=O)C(C#N)C(=O)C2CCCC2)c1 (stereo not given) ?
a: 1

q: Quick one: relative solubility at 100 uM for C=CC(=O)N(c1ccc(C2(C)CC2)cc1)C(C(=O)Nc1cccc(CC)c1)c1cccnc1 (stereo not given) ?
a: 0.65

q: Quick one: relative solubility at 100 uM for Cc1cc(NC(=O)Cn2cncc2C)cc(C)c1Cl ?
a: 0.99

q: Quick one: relative solubility at 100 uM for NS(=O)(=O)c1ccc(N2CCC(N3CCCCC3)CC2)cc1 ?
a: 1

###

condition: 20.0 µM
Quick reference for relative solubility at 20 uM among some molecules
Could you respond with only the numeric value?

# count of solved cases: 8
q: Quick one: relative solubility at 20 uM for Cc1noc(C)c1CS(=O)(=O)Cc1cccc(Cl)c1 ?
a: 0.99

q: Quick one: relative solubility at 20 uM for CS(=O)(=O)c1ncc(Cl)c(C(=O)Nc2ccccc2Cc2ccccc2)n1 ?
a: 0.96

q: Quick one: relative solubility at 20 uM for Nc1nnnn1-c1cccc(C(=O)Nc2c(-c3cccnc3)nc3ccccn23)c1 ?
a: 0.98

q: Quick one: relative solubility at 20 uM for Cc1ccc(O)cc1NC(=O)C(C)(C)c1cccc(F)c1 ?
a: 1

q: Quick one: relative solubility at 20 uM for NS(=O)(=O)CCc1ccccc1CN1CCN(C(=O)CCl)CC1 ?
a: 1

q: Quick one: relative solubility at 20 uM for O=C(C1CCN(c2ccncc2)CC1)N1CCS(=O)(=O)CC1 ?
a: 1

q: Quick one: relative solubility at 20 uM for O=C(CCl)N1CCN(C2(c3cccc(Cl)c3)CC2)CC1 ?
a: 1.01

q: Quick one: relative solubility at 20 uM for COc1ccc(-c2cccc(S(=O)(=O)N3CCN(C(C)=O)CC3)c2)cc1 ?
a: 0.95

Others:
q: Quick one: relative solubility at 20 uM for O=C(c1ccccc1)N1CCN(C(=O)C2CCOCC2)CC1 ?
a: 1

q: Quick one: relative solubility at 20 uM for Cc1cc(C)cc(NC(=O)Cc2cnn(C)c2C)c1 ?
a: 1

q: Quick one: relative solubility at 20 uM for O=C(Cc1cccnc1)NCc1ccccc1 ?
a: 1

q: Quick one: relative solubility at 20 uM for O=C(C1CCCN1C(=O)c1ccccc1)N1CCOCC1 (configuration not stated) ?
a: 1
